Measured logP of individual entries
Reply briefly: the number, and no unit.

Worked examples, 10 compounds total:
[[record]]
compound = "Cc1ccc(Cl)cc1NC1=NCCN1"
quantitativeresult = 1.83

[[record]]
compound = "CN(C(N)=S)c1ccccc1"
quantitativeresult = 0.85

[[record]]
compound = "CCOc1ccc(OC(=O)NC)cc1"
quantitativeresult = 1.63

[[record]]
compound = "CC(=S)N(c1ccccc1)c1ccccc1"
quantitativeresult = 2.83

[[record]]
compound = "COc1ccc(-c2nc3ccncc3n2C)c(OC)c1"
quantitativeresult = 2.68

[[record]]
compound = "C1COCO1"
quantitativeresult = -0.37

[[record]]
compound = "CC(=O)N(C)Nc1ccccc1"
quantitativeresult = 1.31

[[record]]
compound = "CCOc1ccccc1"
quantitativeresult = 2.51

[[record]]
compound = "S=C(N/N=C/c1cc[nH]c1)Nc1ccccc1"
quantitativeresult = 3.73

[[record]]
compound = "CC(C)(C)[N+](=O)[O-]"
quantitativeresult = 1.17


Any idea what its logP is? The compound is O=NN(Cc1ccccc1)c1ccccc1
3.38

Could you share which logP value was measured for CC(=O)OCC1=C(C(=O)O)N2C(=O)C(NC(=O)COc3ccccc3)C2SC1 (stereo not drawn) ?
0.26

# input compound: COc1ccccc1C=CC(=O)OCCOc1ccc(C=NO)cc1OC ; wanted: its logP
3.56

* * *

The reader will find reported logP values listed item by item below.
Simply state the number, no unit and no words.

Check out these entries, answers already filled in.
[[record]]
smilesrepr = "CCCCN(N=O)C(N)=O"
measuredquantity = "logP"
quantitativeresult = 1.04

[[record]]
smilesrepr = "CN(C)c1ccc(C#N)cc1"
measuredquantity = "logP"
quantitativeresult = 2.2


Now consider the entry below.
Please give the measured logP for this compound: O=C(O)c1cccc(I)c1
3.13

* * *

Mark true for reported logP of 2 or greater; mark false for anything smaller.

Example results:
[[record]]
molecule = "CN(C)/N=N/c1ccccc1CO"
grouplabel = "false"

[[record]]
molecule = "CN(C)C(N(C)C)=S(I)c1cccc(F)c1 (configuration not stated)"
grouplabel = "false"

[[record]]
molecule = "CCCCOC(=O)c1ccccc1"
grouplabel = "true"


Decide: logP of CCCNc1ccccc1 >= 2?
true

* * *

Please use the following logP ranges when assigning a class: bottom range: < 1; center range: ≥ 1 and < 2; top range: ≥ 2

Record excerpt, results attached:
[[record]]
compound = "CCOCC(O)Cn1cnc([N+](=O)[O-])n1 (centres undefined)"
grouplabel = "bottom range"

[[record]]
compound = "NCc1ccccn1"
grouplabel = "bottom range"

[[record]]
compound = "O=Cc1ccoc1"
grouplabel = "bottom range"


For the record CC1=CC(=O)C=CC1=O , report the class its logP corresponds to.
bottom range

// bin(item) where item = Cc1cccc(Cl)c1NC1=NCCN1
center range

* * *

The class of a record is decided solely by its measured logP; consult LOW (below 1), MEDIUM (1 to below 3), HIGH (3 or more)

[[record]]
compound = "NS(=O)(=O)c1ccc(C(=O)c2ccncc2)cc1"
grouplabel = "LOW"

[[record]]
compound = "COc1ccccc1OC(=O)c1ccc(N)cc1O"
grouplabel = "MEDIUM"

[[record]]
compound = "CC(=O)OCC(=O)[C@@]12OC(C)(C)O[C@@H]1C[C@H]1[C@@H]3C[C@H](F)C4=CC(=O)C=C[C@]4(C)[C@@]3(F)[C@@H](O)C[C@@]12C"
grouplabel = "HIGH"


Which bin, given its logP, does CCCN(C)/N=N/c1ccc(C(N)=O)cc1 occupy?
MEDIUM

Which of the defined bands does the recorded logP of O=C([O-])c1ccccc1O.[Na+] sit within?
LOW

Entry COc1cccc2c1C(=N)c1c(O)c3c(c(O)c1C2=O)CC(O)(C(=O)CO)CC3OC1CC(N2CCOCC2)C(O)C(C)O1 (stereo not drawn) belongs to which category?
MEDIUM

Lab log: Clc1ccc(Cl)cc1 — assign logP category
HIGH

Would you mind sorting N#CN/C(N)=N/c1ccccc1 into the appropriate category?
MEDIUM

* * *

We begin with a simple list: items and their reported logP.
Give the figure by itself; no unit, no explanation.

[[record]]
compound = "O=C(O)COc1cccc(Cl)c1"
measuredquantity = "logP"
quantitativeresult = 2.03

[[record]]
compound = "COC(=O)CNC(=O)c1ccc(N)cc1"
measuredquantity = "logP"
quantitativeresult = -0.23

[[record]]
compound = "O=[N+]([O-])c1cc[n+]([O-])cc1"
measuredquantity = "logP"
quantitativeresult = -0.55

[[record]]
compound = "CC(C)(C)OC(N)=O"
measuredquantity = "logP"
quantitativeresult = 0.48

[[record]]
compound = "N#Cc1ccc(C(O)C(CO)NC(=O)C(Cl)Cl)cc1 (configuration not stated)"
measuredquantity = "logP"
quantitativeresult = 0.78


Would you kindly look at the next entry?
Quick check: logP of CCCCCc1ccc(N)cc1 ?
3.39

* * *

Recorded measurements of logP, one per entry
API doc: respond with a numeric literal and nothing else, no unit.

[[record]]
compound = "CN(C)C(=O)Nc1ccc([N+](=O)[O-])cc1"
quantitativeresult = 1.51

[[record]]
compound = "Nc1nncc2ccccc12"
quantitativeresult = 0.82

[[record]]
compound = "CC(=O)Oc1ccccc1C(F)(F)F"
quantitativeresult = 2.59

[[record]]
compound = "CSc1ccc(SC)nn1"
quantitativeresult = 1.85

[[record]]
compound = "CCCCCCCOc1cccc(NC(=O)OCCN2CCCCC2)c1"
quantitativeresult = 5.53

[[record]]
compound = "CCCCCCCN(C)/N=N/c1ccc(C(N)=O)cc1"
quantitativeresult = 4.2


logP for COc1ccc(NC(C)=O)cc1 ?
1.03

Fill in the blank: the reported logP of C=C(C)c1ccccc1 is ____.
3.48

Give the measured logP of CN(C)C(N(C)C)=S(I)c1ccc(Cl)cc1 (stereo not given) .
-0.2

Field request: logP | item: Cc1ccc(S(N)(=O)=O)cc1
0.82

* * *

Each entry below carries its reported logP.
Give the figure only, with no unit attached.

For orientation, consider the following solved cases.
[[record]]
compound = "COC(=O)CCCc1ccccc1"
measuredquantity = "logP"
quantitativeresult = 2.77

[[record]]
compound = "CC(C)(Oc1ccc(Cl)cc1)C(=O)O"
measuredquantity = "logP"
quantitativeresult = 2.57

[[record]]
compound = "c1ccc2cnccc2c1"
measuredquantity = "logP"
quantitativeresult = 2.08

[[record]]
compound = "Cc1c[nH]c2ccccc12"
measuredquantity = "logP"
quantitativeresult = 2.6

[[record]]
compound = "NC(=O)N(CCCl)N=O"
measuredquantity = "logP"
quantitativeresult = 0.57

[[record]]
compound = "C=CCCBr"
measuredquantity = "logP"
quantitativeresult = 2.53


Which value of logP has been reported for O=C(O)CC[Se]Cc1ccc([N+](=O)[O-])cc1 in the records?
1.63

Would you mind telling me what logP value was observed for Oc1ccc(Cl)c2cccnc12 ?
2.88

Look at this compound and give its reported logP. NCCCc1ccncc1
0.4

I'd like to know its logP. The compound in question is NCC(=O)NCC(=O)O
-2.92

Looking for the measured logP of O=Cc1cccc([N+](=O)[O-])c1 , can you help?
1.47

Suppose we examine the compound CON=C(C(=O)NC1C(=O)N2C(C(=O)OCOC(=O)C(C)(C)C)=C(CSc3nnnn3C)CSC12)c1csc(N)n1 (stereo not given) ; what logP value has been reported?
1.74

Bench note: what logP did CC(=O)C1CCC2C3CCC4=CC(=O)CCC4(C)C3C(O)CC12C (stereo not given) show?
2.36

Look up logP for this compound: CN(C)C(N(C)C)=S(I)c1ccc(O)cc1 (stereo not given)
-0.88

Name the recorded logP for c1cncc([C@@H]2CCCN2)c1 .
0.17

Fill blank: measured logP of the compound Cc1ccc(O)c(C(=O)O)c1 is ____.
2.78

Name the recorded logP for NC(=S)c1ccccc1 .
1.49

* * *

measuredQuantity: logP
# respond with the number and nothing more

[[record]]
smilesrepr = "O=[N+]([O-])c1ccc(C=Cc2nccs2)o1"
quantitativeresult = 1.97


Quick one: logP for CNC(=O)Oc1cccc(Cl)c1 ?
2.03

Please report the recorded logP for CCCCN .
0.97

Could you tell me which logP is on file for CC(=O)N[C@H](C(=O)N[C@@H](C)C(=O)N[C@@H](C)C(N)=O)C(C)C ?
-1.4

Data request, read-out logP, for O=C(O)CBr
0.41

* * *

measuredQuantity: logP
Give a plain numeric answer without units written out.

Worked cases, answers included:
[[record]]
compound = "CC(=O)c1cccc([N+](=O)[O-])c1"
quantitativeresult = 1.42

[[record]]
compound = "CCOC(=O)OCC"
quantitativeresult = 1.21

[[record]]
compound = "c1cnc2c(c1)ccc1cccnc12"
quantitativeresult = 1.78


Please look up its logP: CCOC(=O)c1cc(O)c(O)c(O)c1
1.3

// lookup logP for CNC(=O)Oc1cc(C)c(SC)c(C)c1
2.92

Any idea what logP was measured for CCC(=O)NN ?
-1

Which logP value belongs to NC(=O)OCc1ccc(Cl)cc1 ?
1.97

# logP lookup, item COP(=S)(OC)SCn1nnc2ccccc2c1=O
2.75

Fill blank: measured logP of the compound NC(=O)c1cccnc1 is ____.
-0.37

Given CNC(C)=O , state its recorded logP.
-1.05

Which logP value belongs to Nc1ccccc1-c1ccccc1 ?
2.84

// lookup logP for Nc1ccc(S(=O)(=O)c2ccc(F)cc2)cc1
2.17

Requested read-out: logP. Entry: CC1(C)CCCC(C)(C)N1
2.15

Give its logP value. Item: CCN1CC(C(O)C(CC2CCCCC2)NC(=O)C(Cc2cnc[nH]2)NC(=O)C(CC(=O)N(C)CCO)Cc2ccccc2)OC1=O (stereo not drawn)
1.94

# input compound: CCOc1cc(C(=O)NN)ccn1 ; wanted: its logP
0.48

Entry C=C(Br)CC1(C(C)C)C(=O)NC(=O)N(C)C1=O (stereo not drawn) : reported logP = ?
2.11

Looking for the measured logP of C=CC(=O)OCCO , can you help?
-0.21

I am curious: what logP value has been reported for O=C(O)Cc1cccc(Br)c1 ?
2.37

Quick one: logP for COP(=S)(OC)Oc1ccc([N+](=O)[O-])c(C)c1 ?
3.3

# get_value(readout='logP', item= C#C )
0.37

Please look up its logP: Nc1cnnc2ccccc12
1.04
